readout.kind: melting point

Guide cases for melting point, answers given:
>  <compound>
Cc1ccc(C(=O)NC(NC(=S)Nc2ccc(Cl)nc2)C(F)(F)F)cc1 (centres undefined)

>  <data.value>
199 to 200 °C

$$$$
>  <compound>
COc1ccc(C=CC(=O)c2c(OC)cc(OC)cc2OC(=O)c2ccc(OC)cc2OC)cc1

>  <data.value>
119 to 120 °C

$$$$
>  <compound>
CCCCOc1cc(/C=C/C(=O)NS(=O)(=O)CCC(C)C)n(Cc2ccc(Cl)cc2Cl)n1

>  <data.value>
119 to 120 °C

$$$$
>  <compound>
CCn1nc2c(n1)C(N1CCN(C)CC1)=Nc1cc(F)ccc1N2

>  <data.value>
178 to 180 °C

$$$$

Go through the list and state melting point for each entry.
1. CC(C)(C)C1=NN(c2ccc(C(=O)O)cc2)C(c2cccc([N+](=O)[O-])c2)C1 (centres undefined)
2. CCOc1c(C#CCO)cc(C(C)(C)C)cc1C(C)(C)C

A)
235 °C
82 to 84 °C

====

For each entry below, report its melting point value.

>  <compound>
Cc1cnc2c(c1)C(=O)CC(C)(C)C2

>  <melting point>
232 to 235 °C

$$$$

Go through the list and state melting point for each entry.
1. COc1cc(Nc2c(NC(C)C(C)(C)C)c(=O)c2=O)c2ncccc2c1 (stereo unspecified)
2. CC(C)COC(NC(=O)OCc1ccccc1)C(=O)O (stereo unspecified)
3. Cc1csc(N=CN(C)C)n1
4. O=C(CCCCCCCBr)OC(C(=O)c1ccccc1)c1ccccc1 (stereo unspecified)
5. COc1nc(C)nc(NC(=O)NS(=O)(=O)c2ccc(Cl)nn2)n1

A)
1: 243 to 245 °C; 2: 66 to 68 °C; 3: 54 to 56 °C; 4: 60 to 61 °C; 5: 135 °C

====

For each entry below, report its melting point value.

Guide cases for melting point, answers given:
>  <structure.smiles.string>
O=c1c2cc(CBr)ccc2oc2ncccc12

>  <melting point>
211 to 212 °C

$$$$
>  <structure.smiles.string>
CCCCCCCCCCCCCCCCCC#CC(C(=O)OCC)C(=O)OCC

>  <melting point>
33 to 34 °C

$$$$
>  <structure.smiles.string>
CN(C)C(=O)Cc1cn(Cc2ccccc2)c2ccc(I)cc12

>  <melting point>
167 to 168 °C

$$$$
>  <structure.smiles.string>
CC(C)(C)c1ccc(COc2cc3c(cc2C(=O)c2ccc(C(=O)O)cc2)C(C)(C)CCC3(C)C)cc1

>  <melting point>
218 to 219 °C

$$$$

Q) Fill in: melting point of N#Cc1ccc(C2=Nc3ccccc3C(=O)C2=Cc2ccncc2)cc1 is ___
A) 154 to 156 °C

====

For each entry below, report its melting point value.

Guide cases for melting point, answers given:
>  <molecule>
CC(=O)ON=C1C(=O)Nc2cc(Cl)cc(Cl)c2C1=O

>  <melting point>
194 to 195 °C

$$$$
>  <molecule>
CC(C)(C)C1=CC(O)(C(F)(F)F)C(=O)C(C(C)(C)C)=C1 (stereo not given)

>  <melting point>
58 to 61 °C

$$$$

Go through the list and state melting point for each entry.
1. Cc1cc(NS(=O)(=O)c2cccs2)c2[nH]c(C(=O)NCCSC(c3ccccc3)(c3ccccc3)c3ccccc3)cc2c1
2. COc1ccc2c(c1)c1cc(OC)ccc1c1[nH]c(S(=O)(=O)C(F)(F)F)nc21
3. CC1OOC2CC1CC(=O)C2C (stereo not given)

A)
1: 214 to 215 °C; 2: 228 to 231 °C; 3: 160 °C

Go through the list and state melting point for each entry.
1. COC(=O)Cc1ccc(OCCCOc2cc3c(cc2O)CCO3)cc1
2. COC(=O)c1c(C)[nH]c(-c2ccncn2)c1C(=O)OC

A)
1. 108 to 110 °C
2. 210 to 211 °C

Go through the list and state melting point for each entry.
1. Cc1ccncc1Cn1nnnc1-c1ccc(Cl)c(Cl)c1
2. Cc1cccc2c1CC(n1ccnc1C(N)=O)C2=O (stereo not given)
3. CCOC(=O)NCCS(=O)CC(=O)O (stereo not given)
4. CC(C)N(C(=O)c1nn(-c2ccc(F)cc2F)c2c1C1CCC2C1)C(C)C (stereo not given)
5. COc1cccc2c1C(=O)c1nc(-c3ccccc3)sc1C2=O

A)
1. 167 to 169 °C
2. 160 °C
3. 93.1 to 94.1 °C
4. 107 to 109 °C
5. 245 °C
